Test system: HCT-116
method: Compound was tested for its in vitro cytotoxicity in HCT-VP35 cell line after 72 hours
Assay type: functional, cell-based
setup-conditions: Homo sapiens, HCT-116, 72 h
readout: IC50 (µg/mL)
Value expressed in µg/mL; do not type the unit.

substance-smiles	IC50 (µg/mL)
COc1cc2c(cc1OC)[C@@H](O[C@@H]1O[C@@H]3CO[C@@H](C)O[C@H]3[C@H](O)[C@H]1O)[C@H]1COC(=O)[C@@H]1[C@@H]2c1cc(OC)c(O)c(OC)c1	10.3

Kindly review the next compound as well.
query: Return reported IC50; argument: `COc1cc([C@@H]2c3cc(O)c(O)cc3[C@@H](O[C@@H]3O[C@@H]4CO[C@@H](C)O[C@H]4[C@H](OC(=O)OCC(Cl)(Cl)Cl)[C@H]3OC(=O)OCC(Cl)(Cl)Cl)[C@H]3COC(=O)[C@H]23)cc(OC)c1OC(=O)OCC(Cl)(Cl)Cl`
result: 8.95
